EXPERIMENTAL SYSTEM: Ras-related C3 botulinum toxin substrate 1 (Homo sapiens)
PROTOCOL DETAILS: compounds altering fluorescent GTP loading on wildtype Rac1 – biochemical, GST-Rac1 beads, flow cytometry, multiplex, primary screen (AID 757)
CONDITION: at 10 µM, actives lie on both sides, 0 = cold GTP competed, 100 = untreated
The campaign covered roughly 190,000 compounds. About 520 (0.27%) were called active. Not shown: some 2% with an inconclusive outcome. The full list was thinned out, with actives kept by preference.
QUANTITY MEASURED: GTP binding activity (% of control) (%)

compound=CN(C)S(=O)(=O)c1ccc(NC(=O)N2CCOCC2)cc1 experimental_system="Ras-related C3 botulinum toxin substrate 1 (Homo sapiens)" numeric_value=100
compound="CC(=O)NC(Cc1ccc(F)c(F)c1)C(=O)NC1CCN(C(=O)c2ccc(C)cc2)CC1 (stereo unspecified)" experimental_system="Ras-related C3 botulinum toxin substrate 1 (Homo sapiens)" numeric_value=103
compound=COc1ccc(C)cc1NC(=S)Nc1ccccc1SC experimental_system="Ras-related C3 botulinum toxin substrate 1 (Homo sapiens)" numeric_value=100
compound=CN(CC(=O)N1CCN(c2ccccc2)CC1)S(=O)(=O)c1cccs1 experimental_system="Ras-related C3 botulinum toxin substrate 1 (Homo sapiens)" numeric_value=101
compound="CC(NC(=O)COC(=O)c1ccc2c(c1)OCO2)c1ccccc1 (stereo unspecified)" experimental_system="Ras-related C3 botulinum toxin substrate 1 (Homo sapiens)" numeric_value=101
compound=CC(=O)c1c(C)[nH]c(C(=O)Nc2cc(S(=O)(=O)N(C)C)ccc2C)c1C experimental_system="Ras-related C3 botulinum toxin substrate 1 (Homo sapiens)" numeric_value=97
compound=COc1cccc(-c2ccc(SCC(=O)N3CCN(c4ccccc4)CC3)nn2)c1 experimental_system="Ras-related C3 botulinum toxin substrate 1 (Homo sapiens)" numeric_value=92
compound=O=C(CN1CCN(Cc2ccc(F)cc2Cl)C1=O)NCc1cccs1 experimental_system="Ras-related C3 botulinum toxin substrate 1 (Homo sapiens)" numeric_value=99
compound="O=C(NC1CCCCC1)C1CCCN(S(=O)(=O)c2ccc(Br)s2)C1 (stereo unspecified)" experimental_system="Ras-related C3 botulinum toxin substrate 1 (Homo sapiens)" numeric_value=100
compound=COc1ccc2ccccc2c1CNc1nnnn1C experimental_system="Ras-related C3 botulinum toxin substrate 1 (Homo sapiens)" numeric_value=93
compound=O=S(=O)(c1cccc(C(F)(F)F)c1)N1CCN(c2cnccn2)CC1 experimental_system="Ras-related C3 botulinum toxin substrate 1 (Homo sapiens)" numeric_value=99
